Details: buffer; pH 7.4; 200.0 µM
quantityName: log10(solubility kinetic) (log10 of the value in µg/mL)

INSERT INTO measurements (compound, resultvalue) VALUES
  ('Cc1cccc(NS(=O)(=O)c2ccc3[nH]c(=O)[nH]c3c2)c1C', 0.70),
  ('Cc1cccc(NC(=S)NCCc2ccc(F)cc2)c1C', 0.45),
  ('C=CCOn1c(=O)c(-c2ccc(Br)cc2)[n+]([O-])c2ccccc21', -0.40),
  ('O=C(O)c1ccccc1C(=O)Nc1nc(-c2ccccc2)cs1', 1.64),
  ('COc1cc2c(C(=O)O)c(C)n(C)c2c2ccccc12', 0.87),
  ('COc1ccc(OCCn2cnc(Cl)c2Cl)cc1', 1.61),
  ('Cc1ccc(NC(=O)C2CCCN(C(=O)Nc3ccc(F)cc3)C2)cc1 (stereo not given)', 1.13),
  ('O=C(Nc1ccc2c(c1)OCCO2)c1cccc(Cl)c1Cl', 1.55),
  ('COc1ccc(NC(=O)COC(=O)Cc2c[nH]c3ccccc23)cc1Cl', 0.61),
  ('Cc1ccccc1OCC(O)CN1C(=O)c2ccccc2C1=O (stereo not given)', 1.62),
  ('COc1cc(C(C)=O)ccc1OCC(=O)N1CCc2ccccc2C1', 1.64),
  ('Cc1ccnc(NS(=O)(=O)c2cc(C(F)(F)F)ccc2Cl)c1', 0.23),
  ('CC(=O)c1sc(NC(=O)c2ccc(Br)o2)nc1C', 1.11),
  ('O=C(Nc1nc2ccccc2[nH]1)C1CCCC1', 0.60);
